Test system: IMPDH human type II (Homo sapiens, UniProt P12268)
Experiment notes: IMPDH activity inhibition assay (spectrophotometric, NADH formation at 340 nm)
Assay type: biochemical
Experimental conditions: IMPDH human type II, 15 to 50 nM enzyme, 37° C., tight-binding fit (Henderson); read-out: Ki
pKi: −log10 of the molar value.
The entries below are paired with their reported pKi.

Below, 2 compounds whose answers are already recorded.
Compound | pKi
COC(=O)Cc1cccc(NC(=O)Nc2ccc(-c3cnco3)c(Cl)c2)c1 | 6.00 to 7.29
COc1ccc(NC(=O)Nc2cccc([N+](=O)[O-])c2)cc1Cl | 5.00 to 6.00

Req: Give the reported pKi for this compound. O=C(Nc1ccc(-c2cnco2)cc1)Nc1cccc(-c2cnco2)c1
Resp: 5.00 to 6.00

Req: Give the reported pKi for this compound. O=C(Nc1ccc(-c2cnco2)c(Cl)c1)Nc1cccs1
Resp: 6.00 to 7.29

Req: Give the reported pKi for this compound. O=C(Nc1ccccc1)Nc1ccc(-c2cnco2)c(Cl)c1
Resp: 6.00 to 7.29

Req: Give the reported pKi for this compound. O=C(Nc1ccc(-c2cnco2)cc1)Nc1ccccc1C(F)(F)F
Resp: 5.00 to 6.00

Req: Give the reported pKi for this compound. O=C(Nc1ccc(-c2cnco2)cc1)Nc1cccc(CO)c1
Resp: 5.00 to 6.00

Req: Give the reported pKi for this compound. COc1ccc(NC(=O)Nc2cccc(C)c2)cc1CO
Resp: 5.00 to 6.00

Req: Give the reported pKi for this compound. COc1cc(NC(=O)Nc2cccc(CNC(=O)OCCCNC(=O)OC(C)(C)C)c2)ccc1-c1cnco1
Resp: 6.00 to 7.29

###

Test system: IMPDH human type II (Homo sapiens)
Experiment notes: IMPDH activity inhibition assay (spectrophotometric, NADH formation at 340 nm)
Format: biochemical
Experimental conditions: IMPDH human type II, 15 to 50 nM enzyme, 37° C., tight-binding fit (Henderson); read-out: Ki
The entries below are paired with their reported Ki.

Below, 5 compounds whose answers are already recorded.
Compound | Reported property | Result value
COc1cc(NC(=O)Nc2cccc(N(C)C(C)=O)c2)ccc1-c1cnco1 | Ki | 0.01 to 50 nM
CSc1cc(NC(=O)Nc2cccc(CNC(=O)O[C@H]3CCOC3)c2)ccc1C#N [Compound 168] | Ki | 51 to 1000 nM
O=C(Nc1ccc(-c2cnco2)cc1)Nc1cccc(Cl)c1 | Ki | 1000 to 10000 nM
O=C(Nc1ccccc1)Nc1ccc(-c2cnco2)c(F)c1 | Ki | 1000 to 10000 nM
COc1cc(NC(=O)Nc2cccc(CNC(=O)OC3C(=O)OCC3(C)C)c2)ccc1-c1cnco1 (centres unmarked) | Ki | 51 to 1000 nM

Req: Give the reported Ki for this compound. COc1cccc(NC(=O)Nc2ccc(-c3cnco3)cc2)c1
Resp: 1000 to 10000 nM

Req: Give the reported Ki for this compound. CN(C(=O)C(F)(F)F)c1cccc(NC(=O)Nc2ccc(-c3cnco3)c(Cl)c2)c1
Resp: 0.01 to 50 nM

###

The entries below are paired with their reported pKi.
Test system: IMPDH human type II (Homo sapiens)
Experiment notes: IMPDH activity inhibition assay (spectrophotometric, NADH formation at 340 nm)
Format: biochemical
Experimental conditions: IMPDH human type II, 15 to 50 nM enzyme, 37° C., tight-binding fit (Henderson); read-out: Ki
pKi: −log10 of the molar value.

Molecule | pKi
COc1cc(NC(=O)Nc2cccc(CNC(=O)OC3CCOC3)c2)ccc1-c1cnco1 (centres unmarked) | 7.30 to 11.00
COc1cc(NC(=O)Nc2cccc(NC(=O)Cc3ccccc3)c2)ccc1-c1cnco1 | 7.30 to 11.00
COc1cc(NC(=O)Nc2cccc(CNC(=O)OC3CCCSC3)c2)ccc1-c1cnco1 (centres unmarked) | 7.30 to 11.00

Req: Give pKi for this entry on IMPDH human type II (Homo sapiens): COc1cc(NC(=O)Nc2cccc(CNC(=O)OCC(C)C)c2)ccc1-c1cnco1
Resp: 7.30 to 11.00

Req: Give pKi for this entry on IMPDH human type II (Homo sapiens): COc1cc(NC(=S)Nc2cccc(C)c2)ccc1-c1cnco1
Resp: 6.00 to 7.29

###

Test system: IMPDH human type II (Homo sapiens)
Experiment notes: IMPDH activity inhibition assay (spectrophotometric, NADH formation at 340 nm)
Type: biochemical
Experimental conditions: IMPDH human type II, 15 to 50 nM enzyme, 37° C., tight-binding fit (Henderson); read-out: Ki
pKi: −log10 of the molar value.
The entries below are paired with their reported pKi.

Below, 2 molecules whose answers are already recorded.
Molecule | pKi
COc1cc(NC(=O)Nc2cccc(CNC(=O)OCC3CCCN(C(=O)OC(C)(C)C)C3)c2)ccc1-c1cnco1 (stereo not shown) | 7.30 to 11.00
O=C(Nc1ccc(-c2cnco2)cc1)Nc1ccc(F)c(Cl)c1 | 5.00 to 6.00

Req: Give the reported pKi for this molecule. O=C(Nc1ccc(-c2cnco2)cc1)Nc1cccc(-c2ccoc2)c1
Resp: 5.00 to 6.00

Req: Give the reported pKi for this molecule. CSc1cc(NC(=O)Nc2cccc(CNC(=O)O[C@H]3CCOC3)c2)ccc1C#N [Compound 165]
Resp: 7.30 to 11.00

###

Test system: IMPDH human type II (Homo sapiens, UniProt P12268)
Experiment notes: IMPDH activity inhibition assay (spectrophotometric, NADH formation at 340 nm)
Format: biochemical
Experimental conditions: IMPDH human type II, 15 to 50 nM enzyme, 37° C., tight-binding fit (Henderson); read-out: Ki
Description: We have measured the inhibition constants of each compound against IMPDH using an adaptation of the method first reported by […]. Moyed, and […]. Biol. Chem., 226, p. 339 (1957)]. We measured the inhibition constants of the compounds listed in Table III utilizing the following protocol: IMP dehydrogenase activity was assayed following an adaptation of the method first reported by […]. […] For reading in a standard spectrophotometer (path length 1 cm) the final volume in the cuvette is 1.0 ml. […]
Reported property: Ki

Req: Give Ki for this entry on IMPDH human type II (Homo sapiens, UniProt P12268): O=C(Nc1ccc(-c2cnco2)cc1)Nc1cccc(S(=O)(=O)NC2CCCCC2)c1
Resp: 1000 to 10000 nM

Req: Give Ki for this entry on IMPDH human type II (Homo sapiens, UniProt P12268): Cc1cccc(NC(=O)Nc2ccc(C#N)cc2)c1
Resp: > 10000 nM

###

Test system: UniProtKB P12268
Experiment notes: IMPDH activity inhibition assay (spectrophotometric, NADH formation at 340 nm)
Format: biochemical
Experimental conditions: IMPDH human type II, 15 to 50 nM enzyme, 37° C., tight-binding fit (Henderson); read-out: Ki
Description: We have measured the inhibition constants of each compound against IMPDH using an adaptation of the method first reported by […]. Moyed, and […]. Biol. Chem., 226, p. 339 (1957)]. We measured the inhibition constants of the compounds listed in Table III utilizing the following protocol: IMP dehydrogenase activity was assayed following an adaptation of the method first reported by […]. […] For reading in a standard spectrophotometer (path length 1 cm) the final volume in the cuvette is 1.0 ml. […]
The entries below are paired with their reported Ki.

Below, 3 molecules whose answers are already recorded.
Molecule | Reported property | Result value
Cc1c(Cl)cccc1NC(=O)Nc1ccc(-c2cnco2)cc1 | Ki | 1000 to 10000 nM
COc1cc(NC(=O)Nc2cccc(CNC(=O)OC3CCCCC3)c2)ccc1-c1cnco1 | Ki | 0.01 to 50 nM
COc1cc(NC(=O)Nc2cccc(CNC(=O)OC3CCSC3)c2)ccc1-c1cnco1 (stereo not shown) | Ki | 0.01 to 50 nM

Req: Give the reported Ki for this molecule. COc1cc(NC(=O)Nc2cccc(CNC(=O)OC3CCOCC3)c2)ccc1-c1cnco1
Resp: 0.01 to 50 nM

Req: Give the reported Ki for this molecule. O=C(Nc1ccncc1)Nc1ccc(-c2cnco2)cc1
Resp: 1000 to 10000 nM

Req: Give the reported Ki for this molecule. COc1ccccc1NC(=O)Nc1ccc(-c2cnco2)cc1
Resp: 1000 to 10000 nM

Req: Give the reported Ki for this molecule. Cc1cc(NC(=O)Nc2ccccc2)ccc1-c1cnco1
Resp: 51 to 1000 nM

###

The entries below are paired with their reported Ki.
Test system: UniProtKB P12268
Experiment notes: IMPDH activity inhibition assay (spectrophotometric, NADH formation at 340 nm)
Assay type: biochemical
Experimental conditions: IMPDH human type II, 15 to 50 nM enzyme, 37° C., tight-binding fit (Henderson); read-out: Ki

Req: Give Ki for this entry on UniProtKB P12268: COc1cc(NC(=O)Nc2cccc(NC(=O)OCc3ccccc3)c2)ccc1-c1cnco1
Resp: 51 to 1000 nM

Req: Give Ki for this entry on UniProtKB P12268: Cc1cccc(NC(=O)Nc2ccc(-c3cnco3)c(F)c2)c1
Resp: 51 to 1000 nM
